target: human CB1 on stably transfected CB1 CHO cells (human, UniProt P21554 1-472); assay: cell-based or functional assay
Sequence (P21554 whole entry): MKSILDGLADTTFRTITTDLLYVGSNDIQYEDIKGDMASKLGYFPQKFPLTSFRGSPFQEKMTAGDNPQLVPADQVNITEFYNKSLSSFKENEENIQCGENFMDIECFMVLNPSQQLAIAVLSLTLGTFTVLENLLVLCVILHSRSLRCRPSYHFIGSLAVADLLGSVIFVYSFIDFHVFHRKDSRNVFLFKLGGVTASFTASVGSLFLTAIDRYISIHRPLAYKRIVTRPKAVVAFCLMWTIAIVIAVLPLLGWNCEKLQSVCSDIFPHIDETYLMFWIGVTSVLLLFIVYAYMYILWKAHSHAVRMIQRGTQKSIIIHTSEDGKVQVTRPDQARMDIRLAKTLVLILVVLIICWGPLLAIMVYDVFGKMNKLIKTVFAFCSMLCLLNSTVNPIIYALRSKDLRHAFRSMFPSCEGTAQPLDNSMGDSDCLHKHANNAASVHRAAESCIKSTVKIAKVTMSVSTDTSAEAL
IC50 (nM, n = 4), antagonist activity, TR-FRET cAMP assay overview
Express the result in nM but write the number alone.

Ask | Sample LIBC680574-1 (IgG1 SEFL2 mAb) (antibody, V domains shown) VH: QVQLQESGPGLVKPSQTLSLTCTVSGGSIRRGGDYWAWIRQHPGKGLEWIGHVYYTGSTKYNPSFKDRATISVNTYKNQFSLKLSSVTAADTAVYYCARNYDTLTGYSYYYYGMDVWGQGTTVTVSS VL: DIQMTQSPSSLSASVGDRVTITCRASQSISSYLNWYQQKPGKAPKLLIYGARRLGSGVPSRFSGSGSGTDFTLTISSLQPEDFATYYCQQYSSLPVTFGGGTKVEIKR — what was its IC50 (nM, n = 4), antagonist activity, TR-FRET cAMP assay?
Reply | 0.75

Ask | Given the binder LIBC681594-1 (IgG1 SEFL2 mAb) (antibody, V domains shown) VH: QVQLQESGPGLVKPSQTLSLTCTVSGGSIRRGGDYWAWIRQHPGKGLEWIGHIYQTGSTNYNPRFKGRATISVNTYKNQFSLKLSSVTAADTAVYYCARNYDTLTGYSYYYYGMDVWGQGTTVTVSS VL: DIQMTQSPSSLSASVGDRVTITCRASQSISSYLNWYQQKPGKAPKLLIYKARKLSSGVPSRFSGSGSGTDFTLTISSLQPEDFATYYCQQFGSMPLTFGGGTKVEIKR , what is its reported IC50 (nM, n = 4), antagonist activity, TR-FRET cAMP assay?
Reply | 1.24

Ask | Reported IC50 (nM, n = 4), antagonist activity, TR-FRET cAMP assay, binder LIBC680562-1 (IgG1 SEFL2 mAb) (antibody, V domains shown) VH: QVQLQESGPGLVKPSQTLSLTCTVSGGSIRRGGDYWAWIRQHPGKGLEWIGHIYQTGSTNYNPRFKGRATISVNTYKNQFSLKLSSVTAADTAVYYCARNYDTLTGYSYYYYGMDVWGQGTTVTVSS VL: DIQMTQSPSSLSASVGDRVTITCRASQSISSYLNWYQQKPGKAPKLLIYSARRLSSGVPSRFSGSGSGTDFTLTISSLQPEDFATYYCQQYAKSPITFGGGTKVEIKR : ____
Reply | 0.71

Ask | What IC50 (nM, n = 4), antagonist activity, TR-FRET cAMP assay value was documented for this binder, LIBC528116-1 + VK1 germline fix(es) (IgG1 SEFL2 mAb) (antibody, V domains shown) VH: QVQLQESGPGLVKPSQTLSLTCTVSGGSIRRGGDYWAWIRQHPGKGLEWIGHVYYTGSTNYNPRFKDRATISVNTYKNQFSLKLSSVTAADTAVYYCARNYDTVTGYSYYYYGMDVWGQGTTVTVSS VL: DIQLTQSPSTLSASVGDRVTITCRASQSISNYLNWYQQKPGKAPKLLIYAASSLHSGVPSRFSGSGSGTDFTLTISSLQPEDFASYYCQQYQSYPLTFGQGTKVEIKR ?
Reply | 2.02

Ask | What value of IC50 (nM, n = 4), antagonist activity, TR-FRET cAMP assay has been reported for the following binder? LIBC674229-1 (IgG1 SEFL2 mAb) (antibody, V domains shown) VH: QVQLQESGPGLVKPSQTLSLTCTVSGGSIRRGGDYWSWIRQHPGKGLEWIGHIYQTGQTKYNPSFKGRVRISVNTYKNQFSLKLSSVTAADTAVYYCARGYDVSGYSYYYYGMDVWGQGTTVTVSS VL: DIVMTQSPLSLPVTPGEPASISCRSSQSLLHRSGYNYLDWYLQKPGQSPQLLIYQGSNRASGVPDRFSGSGSGTDFTLKISRVEAEDVGVYYCMQSLQTPRTFGQGTKVEIKR
Reply | 4.16
